Assay: Cytotoxicity of compounds on mammalian cells (MTT)
Assay type: cell-based
Conditions: mouse, Raw 264.7 macrophage cells, Raw 264.7 cells, read-out: Macrophages CC50 (μM) ±SD
Experimental: Raw 264.7 cells were seeded into 96-well plates at (1 x 10^6 cells) in DMEM supplemented with 10% FBS, 100 μg/mL streptomycin, 100 u/mL penicillin-G, 2g/L NaHCO3 and incubated at 37°C for 24 hours in 5% CO2. […] Cell viability was estimated by measuring the mitochondria oxidative activity by MTT assay and absorbance was read at 570 nm using Thermo Scientific Varioskan LUX. Selectivity index (SI) was calculated as the ratio of the CC50 to IC50 values.
Label T when CC50 at 48 h is strictly below 60 µM; at or above that, label F.

Please let me know if O=c1cc(-c2ccc(O)cc2)oc2cc(O)cc(O)c12 shows CC50 at 48 h below 60 µM.
F

Please let me know if O=C(/C=C/c1ccc(O)c(O)c1)O[C@H](Cc1ccc(O)c(O)c1)C(=O)O shows CC50 at 48 h below 60 µM.
F

Please let me know if C[C@@H]1[C@H](O)[C@@H](C)/C=C/C=C/C=C/C=C/C=C/C=C/C=C/[C@H](O[C@@H]2O[C@H](C)[C@@H](O)[C@H](N)[C@@H]2O)C[C@@H]2O[C@](O)(C[C@@H](O)C[C@@H](O)[C@H](O)CC[C@@H](O)C[C@@H](O)CC(=O)O[C@H]1C)C[C@H](O)[C@H]2C(=O)O [Amphotericin B, reference compound] shows CC50 at 48 h below 60 µM.
T

Please let me know if O=C(O)c1ccccc1O shows CC50 at 48 h below 60 µM.
F

Please let me know if CC(=O)N(O)CCCCCNC(=O)CCC(=O)N(O)CCCCCNC(=O)CCC(=O)N(O)CCCCCN [Deferoxamine, deferoxamine, reference compound] shows CC50 at 48 h below 60 µM.
T

Please let me know if O=C(O)/C=C/c1ccc(O)c(O)c1 shows CC50 at 48 h below 60 µM.
F

###

CC50 at 48 h listing for selected compounds.
Assay: Cytotoxicity of compounds on mammalian cells (MTT)
Format: cell-based
Conditions: mouse, Raw 264.7 cells, read-out: Macrophages CC50 (μM) ±SD
The reply should consist of the numeric value with the unit placed after it.

{"columns": ["test_smiles", "recorded_value"],
 "data": [
  ["O=C(O)c1cc(O)c(O)c(O)c1", "33.8 µM"],
  ["O=C(O)c1ccc(O)c(O)c1", "512 µM"],
  ["O=C(O)C=Cc1ccc(O)cc1", "323 µM"],
  ["COc1cc(C(=O)O)ccc1O", "13.2 µM"]
]}

Here is another compound to look at.
Please supply the value of reported CC50 at 48 h for the item COc1cc(/C=C/C(=O)O)ccc1O
347 µM

###

IC50 listing for selected compounds.
System: Leishmania donovani intracellular amastigotes
Assay: Intracellular amastigote assay in infected RAW 264.7 cells
Type: cell-based
Conditions: Leishmania donovani, RAW264.7; intracellular amastigotes in RAW 264.7 cells, 48 hours; read-out: Amastigotes IC50 (μM) ± SD
Write the answer as a number in µM, unit excluded.

Please supply the value of reported IC50 for the item COc1cc(C(=O)O)ccc1O
70

Please supply the value of reported IC50 for the item CC(=O)N(O)CCCCCNC(=O)CCC(=O)N(O)CCCCCNC(=O)CCC(=O)N(O)CCCCCN [Deferoxamine, deferoxamine, reference compound]
36.7

Please supply the value of reported IC50 for the item O=C(/C=C/c1ccc(O)c(O)c1)O[C@H](Cc1ccc(O)c(O)c1)C(=O)O
19.2

Please supply the value of reported IC50 for the item O=C(O)/C=C/c1ccc(O)c(O)c1
56.8

Please supply the value of reported IC50 for the item O=C(/C=C/c1ccc(O)c(O)c1)O[C@@H]1C[C@](O)(C(=O)O)C[C@@H](O)[C@H]1O
53.8

Please supply the value of reported IC50 for the item O=C(O)c1cc(O)c(O)c(O)c1
54.6

Please supply the value of reported IC50 for the item O=C(O)c1ccccc1O
90.7

Please supply the value of reported IC50 for the item O=c1cc(-c2ccc(O)cc2)oc2cc(O)cc(O)c12
45.7
